molecular target: Stromelysin (Mus musculus, UniProt P28862); construct: endogenous in cells; assay: Stromelysin inhibiting activity (fluorescence labeled casein); details: from mouse colon cancer cell (Colon 26); 3 hours at 37° C., pH 7.5
Sequence (P28862 100-477): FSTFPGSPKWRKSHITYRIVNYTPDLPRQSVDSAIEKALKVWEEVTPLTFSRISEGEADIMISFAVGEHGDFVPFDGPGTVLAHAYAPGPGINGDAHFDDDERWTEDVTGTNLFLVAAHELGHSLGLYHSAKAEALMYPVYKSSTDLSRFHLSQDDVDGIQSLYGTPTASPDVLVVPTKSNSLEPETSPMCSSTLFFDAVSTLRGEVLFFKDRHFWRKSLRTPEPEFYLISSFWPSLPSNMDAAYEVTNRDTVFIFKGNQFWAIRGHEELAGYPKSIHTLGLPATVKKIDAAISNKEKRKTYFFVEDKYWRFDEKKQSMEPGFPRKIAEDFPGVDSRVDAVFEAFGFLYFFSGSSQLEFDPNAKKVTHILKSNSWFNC
Reported IC50 values for the following molecules.
OBSERVABLE: IC50 (nM)

In [3]: df
Out[3]:
                               smiles_entry  unit_of_measurement  measured
0  CCN1C(=O)[C@@H](NC(=O)[C@@H](CC(=O)NO)CC(C)C)Cc2ccccc21                   nM       700
1  CC(C)C[C@@H](C(=O)N[C@H]1Cc2ccccc2NC1=O)[C@H](CS)C(=O)NO                   nM       150
2  CCOC(=O)CN1C(=O)[C@@H](NC(=O)[C@@H](CC(=O)NO)CC(C)C)Cc2ccccc21                   nM       380
3  CC(C)C[C@H](CC(=O)NO)C(=O)N[C@H]1Cc2ccccc2N(CC(N)=O)C1=O                   nM       200

###

target: Interstitial collagenase (Homo sapiens); construct: endogenous in cells; test: Interstitial collagenase inhibiting activity (fluorescence labeled collagen); details: from human fibroblast cell (Detroit 551); 2 hours at 35° C., pH 7.5
Sequence (P03956 100-469): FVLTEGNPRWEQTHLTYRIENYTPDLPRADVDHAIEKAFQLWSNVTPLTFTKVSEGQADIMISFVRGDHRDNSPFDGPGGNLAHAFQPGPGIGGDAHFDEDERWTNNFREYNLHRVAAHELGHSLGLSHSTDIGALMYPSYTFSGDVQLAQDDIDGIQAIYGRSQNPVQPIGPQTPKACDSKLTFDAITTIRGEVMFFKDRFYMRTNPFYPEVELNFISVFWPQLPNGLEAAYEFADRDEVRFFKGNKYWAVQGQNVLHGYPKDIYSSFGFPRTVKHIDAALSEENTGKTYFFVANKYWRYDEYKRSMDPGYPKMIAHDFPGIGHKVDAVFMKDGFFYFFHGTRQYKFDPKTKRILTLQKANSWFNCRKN
Reported IC50 values for the following molecules.
OBSERVABLE: IC50 (nM)

>>> print(df.to_string())
                               smiles_entry  unit_of_measurement  measured
0  CCCCC[C@H](CC(=O)NO)C(=O)N[C@H]1Cc2ccccc2N(OC)C1=O                   nM        11
1  CCCCC[C@H](CC(=O)NO)C(=O)N[C@H]1Cc2cc3c(cc2N(CC)C1=O)OCO3                   nM        14
2  CCCCCCC[C@H](CC(=O)NO)C(=O)N[C@H]1Cc2ccccc2N(OC)C1=O                   nM       220
3  CCN1C(=O)[C@@H](NC(=O)[C@@H](CC(=O)NO)CC(C)C)Cc2cc3c(cc21)OCO3                   nM        87
4  CC(C)C[C@H](CC(=O)NO)C(=O)N[C@H]1Cc2cc3c(cc2N(C)C1=O)OCO3                   nM       110
5  CCOC(=O)CN1C(=O)[C@@H](NC(=O)[C@@H](CC(=O)NO)CC(C)C)Cc2ccccc21                   nM       160
6  COCN1C(=O)[C@@H](NC(=O)[C@@H](CC(=O)NO)CC(C)C)Cc2ccccc21                   nM        22
7  CC(C)C[C@@H](C(=O)N[C@H]1Cc2ccccc2NC1=O)[C@H](CS)C(=O)NO                   nM       360

###

biological target: Type IV collagenase; assay: Type IV collagenase inhibiting activity (fluorescence labeled gelatin); assay type: biochemical, human; conditions: from HT-1080 cell; 6 hours at 37° C., pH 7.5
pIC50: −log10 of the molar value.
OBSERVABLE: pIC50

>>> df
                                   compound  measured
0  COc1ccc2c(c1)NC(=O)[C@@H](NC(=O)[C@@H](CC(=O)NO)CC(C)C)C2 [Test compound 2]      6.29
1  CCCCC[C@H](CC(=O)NO)C(=O)N[C@H]1Cc2cc3c(cc2N(CC)C1=O)OCO3 [Test compound 29]      6.70
2  CC(C)C[C@H](CC(=O)NO)C(=O)N[C@H]1Cc2ccccc2NC1=O [Test compound 1]      5.77
3  CC(=O)SC[C@H](C(=O)NO)[C@@H](CC(C)C)C(=O)N[C@H]1Cc2ccccc2NC1=O [Test compound 4]      5.72

Values were extracted from patent US5594006A.
